Origin of the recorded values: ChEMBL document CHEMBL3886157

experimental.system: Ribosomal protein S6 kinase beta-1 (Homo sapiens, UniProt P23443, T412E)
Sequence (P23443 whole entry T412E): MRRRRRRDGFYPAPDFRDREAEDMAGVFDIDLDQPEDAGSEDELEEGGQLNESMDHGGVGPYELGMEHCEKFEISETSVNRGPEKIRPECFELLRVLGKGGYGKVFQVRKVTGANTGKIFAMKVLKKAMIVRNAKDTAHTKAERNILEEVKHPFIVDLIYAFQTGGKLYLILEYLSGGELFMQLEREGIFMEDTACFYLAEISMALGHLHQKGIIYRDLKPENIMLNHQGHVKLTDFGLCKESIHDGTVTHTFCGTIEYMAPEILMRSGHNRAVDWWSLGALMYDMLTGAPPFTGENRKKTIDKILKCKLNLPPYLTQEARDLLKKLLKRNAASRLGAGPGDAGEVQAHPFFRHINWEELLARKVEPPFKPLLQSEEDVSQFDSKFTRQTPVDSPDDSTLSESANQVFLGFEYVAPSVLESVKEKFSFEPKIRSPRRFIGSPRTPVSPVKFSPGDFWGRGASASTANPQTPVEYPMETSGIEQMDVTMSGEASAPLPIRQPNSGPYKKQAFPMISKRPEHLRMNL
assay.details: P70S6K Enzyme Assay: P70S6K inhibitor compounds are diluted and plated in 96 well plates. A reaction mixture including the following components is then added to the compound plate to initiate the enzyme reaction; P70S6K (3 nM, T412E mutant, Millipore) is mixed with 24 uM ATP in an assay buffer containing 100 mM Hepes (pH 7.5), 5 mM MgCl2, 1 mM DTT, 0.015% Brij and 1 uM of the substrate peptide FITC-AHA-[…]-OH (derived from the S6 ribosomal protein sequence, FITC=fluorescein isothiocyanate, AHA=6-aminohexanoic acid). The reaction is incubated for 90 min at 25° C., before the addition of 10 mM EDTA to stop the reaction. The proportion of substrate and product (phosphorylated) peptide is analysed on a Caliper Life Sciences Lab Chip 3000, using a pressure of -1.4 psi, and upstream and downstream voltages of -3000 and -700 respectively. Product peaks are resolved before substrate peaks on the resulting chromatograms.
pIC50: −log10 of the molar value.
value.kind: pIC50

[[record]]
compound = "NC(=O)c1ccc(N2CCN(c3ccc(Cl)c(Cl)c3)CC2)c2cncnc12"
experimental_value = "< 4.00"

[[record]]
compound = "CNC[C@@H](Nc1ccc(C(N)=O)c2ncncc12)c1cccc(F)c1"
experimental_value = "< 6.00"

[[record]]
compound = "NC(=O)c1ccc(NC(=O)C2CNC[C@@H]2c2cccc(F)c2)c2cccnc12 (stereo partly drawn)"
experimental_value = "< 6.00"

